So I've got a bunch of molecules here, and I need their cytotoxicity at 70.5 h values.
# assay details: Human HepG2 cell viability assay in 384 well format
# Assay type: toxicity, cell-based
# Design: dose 125 nL, time 70.5 hour; concentration not given beside the values
# setup conditions: HepG2 cells, read-out: Inhibition

Lookup: Which cytotoxicity at 70.5 h reading was recorded for the molecule `CNC(=O)c1cc(NC(=O)NC2CC2)ccc1F` ?
Found: -8.55%

Lookup: // same read-out, input: Cc1cc(NC(=O)CCN2CCCC2Cn2cncn2)no1 (stereo not drawn)
Found: 1.41%

Lookup: Consider next the molecule `Cc1ccccc1-n1cc(-c2ccnc(N[C@@H](CO)C(C)C)n2)cn1` in the same way.
Found: -7.32%

Lookup: Check CC(Nc1nccc(CCC(F)(F)F)n1)c1nc(-c2ccccn2)no1 (stereo not drawn) too.
Found: -2.61%

Lookup: Item: `Cc1ccc(OCCCC(=O)Nc2nonc2C)cc1C`
Found: 12%

Lookup: Moving on to c1cc(CN2CCC3(CCOCC3COCC3CC3)CC2)ccn1 (stereo not drawn)
Found: 0.537%

Lookup: # iterate: `Cc1cnc(CNC(=O)[C@@]23CCO[C@@H]2CCNC3)cn1`
Found: 0.0687%

Lookup: Queued: `Cn1cc(C(=O)O)c(-c2ccc(F)cc2F)n1`
Found: -4.16%

Lookup: Same again, this time with Cc1nccn1-c1cc(CNC(=O)C2CCC(=O)N2)ccn1 (stereo not drawn)
Found: -6.29%

Lookup: Moving on to the next molecule: `Cn1ccnc(Sc2cccc(C#N)c2)c1=O`
Found: -4.29%

Lookup: // repeat for Cc1nn(C)c(C)c1C1COCCN1C(=O)Cc1cccc(F)c1 (stereo not drawn) and report
Found: 12.5%

Lookup: Can you check `O=C(O)c1nn(CC2CC2)c2c1CN(S(=O)(=O)c1cccnc1)CC2` next?
Found: -11%

Lookup: Same question for CC(Nc1ccc2c(c1)CCC2)c1nc(C2CC2)no1 (stereo not drawn) please.
Found: -3.74%

Lookup: Then COCC1COCCC12CCN(C(=O)CCc1ccccc1C)CC2 (stereo not drawn) ?
Found: -5.26%

Lookup: How about this molecule: CCn1ncc2c1C(COC)CN(Cc1cccnc1)C2 (stereo not drawn)
Found: 21.4%

Lookup: Param item: COc1ccc(CC2CN(C(=O)c3ocnc3C)CCO2)cc1 (stereo not drawn)
Found: 14.4%

Lookup: Another: Cc1cc(CCC(=O)N(C)C)nc(C2CCCCN2)n1 (stereo not drawn)
Found: -5.77%

Lookup: And then `CC(C)(C)C(=O)N1CC[C@@H]2[C@H](CC1)N(S(C)(=O)=O)CCS2(=O)=O` , what is it?
Found: -10.7%

---

# assay details: Human HepG2 cell viability assay in 384 well format
# Assay type: toxicity, cell-based
# Set-up: dose 125 nL, time 70.5 hour; concentration not given beside the values
# setup conditions: HepG2 cells, read-out: Inhibition
observed property: cytotoxicity at 70.5 h (%)
Give the value in % but do not write % after it.

Lookup: Any idea what cytotoxicity at 70.5 h was measured for `CNC(=O)[C@@H](C1CC1)N1CCC[C@H]1C(=O)NCC(C)C` ?
Found: -7.95

Lookup: Let us now turn to `Cc1c(C(=O)O)cnn1-c1ccc(-c2nc(C(C)(C)C)no2)cn1`
Found: -8.45

Lookup: What would you report for `Cn1cc(CN2CCc3c(COCC4CC4)cncc3C2)cn1` ?
Found: -1.91

Lookup: How about this molecule: O=C1C(NCc2nnc3n2CCCC3)CCN1c1ccccc1F (stereo not given)
Found: -20.6

Lookup: Same again, this time with `COc1nccc(N2CC[C@H](CO)[C@@H](O)C2)c1C#N`
Found: -6.06
